Notes on Kd obtained with UniProt O60674.
Sequence (O60674 whole entry): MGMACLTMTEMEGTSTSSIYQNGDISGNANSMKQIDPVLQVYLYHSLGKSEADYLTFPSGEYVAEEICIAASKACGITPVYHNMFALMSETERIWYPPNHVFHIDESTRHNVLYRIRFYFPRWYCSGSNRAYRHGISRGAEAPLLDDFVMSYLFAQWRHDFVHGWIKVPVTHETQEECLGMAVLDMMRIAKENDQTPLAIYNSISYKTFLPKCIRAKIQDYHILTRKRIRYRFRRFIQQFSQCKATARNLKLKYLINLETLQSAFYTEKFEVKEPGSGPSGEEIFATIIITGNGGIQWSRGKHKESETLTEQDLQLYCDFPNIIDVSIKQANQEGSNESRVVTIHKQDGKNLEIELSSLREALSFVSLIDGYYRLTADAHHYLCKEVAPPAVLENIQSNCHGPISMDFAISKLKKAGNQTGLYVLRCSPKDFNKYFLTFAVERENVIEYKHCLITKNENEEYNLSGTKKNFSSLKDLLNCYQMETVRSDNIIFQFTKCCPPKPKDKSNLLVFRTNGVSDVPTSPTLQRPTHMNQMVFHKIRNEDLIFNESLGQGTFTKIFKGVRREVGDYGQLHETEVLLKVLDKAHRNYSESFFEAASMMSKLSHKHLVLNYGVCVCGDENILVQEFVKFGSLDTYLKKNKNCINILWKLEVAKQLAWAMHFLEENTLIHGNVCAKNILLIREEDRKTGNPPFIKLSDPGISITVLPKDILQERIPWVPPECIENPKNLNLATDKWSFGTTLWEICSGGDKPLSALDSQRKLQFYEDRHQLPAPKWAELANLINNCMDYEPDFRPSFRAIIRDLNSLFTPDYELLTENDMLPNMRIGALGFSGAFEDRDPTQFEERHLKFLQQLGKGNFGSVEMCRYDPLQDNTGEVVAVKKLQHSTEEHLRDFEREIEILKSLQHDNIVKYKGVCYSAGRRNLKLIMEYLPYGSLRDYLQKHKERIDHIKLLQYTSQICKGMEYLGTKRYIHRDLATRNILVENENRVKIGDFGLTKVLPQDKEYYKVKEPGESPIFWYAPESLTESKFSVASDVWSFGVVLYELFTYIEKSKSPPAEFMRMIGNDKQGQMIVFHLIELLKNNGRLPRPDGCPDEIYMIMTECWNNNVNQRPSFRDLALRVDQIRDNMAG

{"compound": "Cc1csc2nc(C(=O)c3ccc(F)cc3)nc(Nc3cc[nH]n3)c12", "Kd": "> 10 nM"}
{"compound": "CC(C)(C)c1cc2nc(C(F)(F)c3ccc(F)cc3)nc(Nc3cc[nH]n3)c2s1", "Kd": "1 to 10 nM"}
{"compound": "Cc1cc(Nc2nc(C(O)c3ccc(F)cc3)nc3sccc23)n[nH]1 (racemic)", "Kd": "≤ 1 nM"}
{"compound": "CC(C)(C)c1cc2nc(C(O)c3ccc(F)cc3)nc(Nc3cc[nH]n3)c2s1 (racemic)", "Kd": "1 to 10 nM"}

###

- target.desc: JAK3 (Homo sapiens)
- Sequence (P52333 1-1124): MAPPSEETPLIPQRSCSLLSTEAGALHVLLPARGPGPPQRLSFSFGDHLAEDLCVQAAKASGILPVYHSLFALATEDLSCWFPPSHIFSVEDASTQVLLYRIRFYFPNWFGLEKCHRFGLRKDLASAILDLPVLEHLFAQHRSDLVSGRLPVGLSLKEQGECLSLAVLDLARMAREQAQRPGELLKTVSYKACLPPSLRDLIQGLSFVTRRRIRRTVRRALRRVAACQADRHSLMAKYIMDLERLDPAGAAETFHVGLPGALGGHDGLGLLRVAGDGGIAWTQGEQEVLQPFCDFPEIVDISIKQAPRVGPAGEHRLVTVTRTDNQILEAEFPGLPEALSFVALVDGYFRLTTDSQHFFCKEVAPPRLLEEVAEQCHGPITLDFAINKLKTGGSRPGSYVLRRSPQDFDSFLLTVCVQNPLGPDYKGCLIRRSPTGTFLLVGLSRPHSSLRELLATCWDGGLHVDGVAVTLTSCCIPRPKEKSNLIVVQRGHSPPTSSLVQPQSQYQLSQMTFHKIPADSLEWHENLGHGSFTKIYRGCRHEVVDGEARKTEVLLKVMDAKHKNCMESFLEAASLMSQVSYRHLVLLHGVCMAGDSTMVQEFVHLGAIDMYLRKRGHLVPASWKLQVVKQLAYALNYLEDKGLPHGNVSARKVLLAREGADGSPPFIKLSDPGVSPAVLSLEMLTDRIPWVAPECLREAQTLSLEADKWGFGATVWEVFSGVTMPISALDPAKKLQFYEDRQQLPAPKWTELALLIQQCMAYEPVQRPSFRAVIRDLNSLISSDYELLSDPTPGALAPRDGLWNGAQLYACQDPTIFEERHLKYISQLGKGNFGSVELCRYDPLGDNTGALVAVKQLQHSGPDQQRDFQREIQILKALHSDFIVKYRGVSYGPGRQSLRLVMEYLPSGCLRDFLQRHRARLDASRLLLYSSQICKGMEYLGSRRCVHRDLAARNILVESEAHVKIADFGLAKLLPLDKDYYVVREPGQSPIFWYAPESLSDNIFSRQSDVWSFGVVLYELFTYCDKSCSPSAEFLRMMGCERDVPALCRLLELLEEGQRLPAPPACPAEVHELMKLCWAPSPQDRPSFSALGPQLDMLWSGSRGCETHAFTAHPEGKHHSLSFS
pKd: −log10 of the molar value.

{"compound": "Cc1cc(Nc2nc(C(O)c3ccc(F)cc3)nc3sc(C)cc23)n[nH]1 (racemic)", "target.desc": "JAK3 (Homo sapiens)", "pKd": "7.00 to 8.00"}
{"compound": "Cc1cc(Nc2nc(C(F)(F)c3ccc(F)cc3)nc3sccc23)n[nH]1", "target.desc": "JAK3 (Homo sapiens)", "pKd": "≥ 8.00"}
{"compound": "Cc1cc(Nc2nc(C(F)(F)c3ccc(F)cn3)nc3ccsc23)n[nH]1", "target.desc": "JAK3 (Homo sapiens)", "pKd": "≥ 8.00"}
{"compound": "Cc1cc(Nc2nc(C(F)(F)c3ccc(F)cc3)nc3ccsc23)n[nH]1", "target.desc": "JAK3 (Homo sapiens)", "pKd": "≥ 8.00"}
{"compound": "Cc1cc2c(Nc3cc[nH]n3)nc(C(O)c3ccc(F)cc3)nc2s1 (racemic)", "target.desc": "JAK3 (Homo sapiens)", "pKd": "7.00 to 8.00"}
{"compound": "Cc1cc(Nc2nc(C(F)(F)c3ccc(F)cc3)nc3cc(C(C)(C)C)sc23)n[nH]1", "target.desc": "JAK3 (Homo sapiens)", "pKd": "7.00 to 8.00"}
{"compound": "Cc1cc(Nc2nc(C(O)c3ccc(F)cc3)nc3cc(C(C)(C)C)sc23)n[nH]1 (stereo not drawn)", "target.desc": "JAK3 (Homo sapiens)", "pKd": "7.00 to 8.00"}
{"compound": "Cc1cc2c(Nc3cc[nH]n3)nc(C(F)(F)c3ccc(F)cc3)nc2s1", "target.desc": "JAK3 (Homo sapiens)", "pKd": "7.00 to 8.00"}
{"compound": "CC(C)(C)c1cc2nc(C(=O)c3ccc(F)cc3)nc(Nc3cc[nH]n3)c2s1", "target.desc": "JAK3 (Homo sapiens)", "pKd": "< 7.00"}
{"compound": "Cc1cc(Nc2nc(C(=O)c3ccc(F)cc3)nc3sccc23)n[nH]1", "target.desc": "JAK3 (Homo sapiens)", "pKd": "≥ 8.00"}
{"compound": "Cc1cc(Nc2nc(C(O)c3ccc(F)cc3)nc3scc(C)c23)n[nH]1 (racemic)", "target.desc": "JAK3 (Homo sapiens)", "pKd": "< 7.00"}
{"compound": "Cc1cc(Nc2nc(C(=O)c3ccc(F)cc3)nc3scc(C)c23)n[nH]1", "target.desc": "JAK3 (Homo sapiens)", "pKd": "< 7.00"}
{"compound": "Cc1cc(Nc2nc(C(O)c3ccc(F)cc3)nc3sccc23)n[nH]1 (racemic)", "target.desc": "JAK3 (Homo sapiens)", "pKd": "≥ 8.00"}
{"compound": "COC(c1ccc(F)cc1)c1nc(Nc2cc(C)[nH]n2)c2sccc2n1 (stereo not drawn)", "target.desc": "JAK3 (Homo sapiens)", "pKd": "7.00 to 8.00"}
{"compound": "COC(c1ccc(F)cc1)c1nc(Nc2cc(C)[nH]n2)c2ccsc2n1 (racemic)", "target.desc": "JAK3 (Homo sapiens)", "pKd": "7.00 to 8.00"}
{"compound": "Cc1cc(Nc2nc(C(F)(F)c3ccc(F)cc3)nc3sc(C)cc23)n[nH]1", "target.desc": "JAK3 (Homo sapiens)", "pKd": "7.00 to 8.00"}
{"compound": "Cc1csc2nc(C(=O)c3ccc(F)cc3)nc(Nc3cc[nH]n3)c12", "target.desc": "JAK3 (Homo sapiens)", "pKd": "< 7.00"}
{"compound": "Cc1csc2c(Nc3cc[nH]n3)nc(C(O)c3ccc(F)cc3)nc12 (stereo not drawn)", "target.desc": "JAK3 (Homo sapiens)", "pKd": "7.00 to 8.00"}
{"compound": "Cc1cc(Nc2nc(C(O)c3ccc(F)cc3)nc3c(C)csc23)n[nH]1 (stereo not drawn)", "target.desc": "JAK3 (Homo sapiens)", "pKd": "7.00 to 8.00"}
{"compound": "CC(C)(C)c1cc2nc(C(O)c3ccc(F)cc3)nc(Nc3cc[nH]n3)c2s1 (racemic)", "target.desc": "JAK3 (Homo sapiens)", "pKd": "< 7.00"}
{"compound": "Cc1cc(Nc2nc(C(=O)c3ccc(F)cc3)nc3cc(C(C)(C)C)sc23)n[nH]1", "target.desc": "JAK3 (Homo sapiens)", "pKd": "< 7.00"}
{"compound": "Cc1cc(Nc2nc(C(O)c3ccc(F)cc3)nc3ccsc23)n[nH]1 (racemic)", "target.desc": "JAK3 (Homo sapiens)", "pKd": "≥ 8.00"}
{"compound": "Cc1cc(Nc2nc(C(O)c3ccc(F)cc3)nc3cc(C)sc23)n[nH]1 (racemic)", "target.desc": "JAK3 (Homo sapiens)", "pKd": "≥ 8.00"}
{"compound": "Fc1ccc(C(F)(F)c2nc(Nc3cc[nH]n3)c3ccsc3n2)cc1", "target.desc": "JAK3 (Homo sapiens)", "pKd": "7.00 to 8.00"}
{"compound": "Cc1cc(Nc2nc(C(=O)c3ccc(F)cc3)nc3ccsc23)n[nH]1", "target.desc": "JAK3 (Homo sapiens)", "pKd": "≥ 8.00"}
{"compound": "Cc1csc2nc(C(O)c3ccc(F)cc3)nc(Nc3cc[nH]n3)c12 (racemic)", "target.desc": "JAK3 (Homo sapiens)", "pKd": "< 7.00"}
{"compound": "Cc1cc2c(Nc3cn(C)cn3)nc(C(O)c3ccc(F)cc3)nc2s1 (stereo not drawn)", "target.desc": "JAK3 (Homo sapiens)", "pKd": "< 7.00"}
{"compound": "Cc1cc(Nc2nc(C(=O)c3ccc(F)cc3)nc3cc(C)sc23)n[nH]1", "target.desc": "JAK3 (Homo sapiens)", "pKd": "≥ 8.00"}
{"compound": "CC(C)(C)c1cc2nc(C(F)(F)c3ccc(F)cc3)nc(Nc3cc[nH]n3)c2s1", "target.desc": "JAK3 (Homo sapiens)", "pKd": "< 7.00"}
{"compound": "Cc1cc(Nc2nc(C(O)c3ccc(F)cc3)nc3cscc23)n[nH]1 (racemic)", "target.desc": "JAK3 (Homo sapiens)", "pKd": "≥ 8.00"}

Values from patent US20130317045A1
